Tested on: NCI-H522 lung
Assay: NCI tumour cell line growth inhibition, 48 h; in the data active = GI50 below about 0.43 µM; inactive = the rest
The reply should name one outcome from true (1) (active), false (0) (inactive)

COc1ccc(C2=NN(C(=O)c3cc(OC)c(OC)c(OC)c3)C(c3ccc(Cl)cc3)C2)cc1OC (stereo not drawn) = false (0)
C=CC(C=O)C1(O)CCOC(=O)/C1=C\N (stereo not drawn) = false (0)

Shifting focus to the compound that follows.
In: Answer briefly: the call reported for `O=C(Nc1ccc(Oc2ccc3nc(NC(=O)c4ccccc4)[nH]c3c2)cc1)Nc1cc(C(F)(F)F)ccc1F` in this assay.
Out: false (0)

---

Recorded TGI for the following compounds
System: UO-31 renal
Test: NCI tumour cell line growth inhibition, 48 h
Enter your answer as a number in µM; do not include the unit.

CCOC(=O)C1=C(C)NC2SC(=O)/C(=C\c3ccccc3O)N2C1c1ccccc1 (stereo unspecified) = 66.8
CO/N=C(\C)c1cccc(Nc2cc(-c3ccccc3)nc3c(O)cccc23)c1 = 60.5
O=C1c2ccccc2C(=O)c2c(NCCNCCO)ccc(O)c21 = 5.58
CCSC1(SCC)CC(Cc2ccc(OC)cc2)N(C=NC(C)(C)C)C1 (stereo unspecified) = 87.5
O=c1ssc(Cl)c1Nc1c(Cl)ssc1=O = 32.4

Let us examine a further case.
In: Would you mind telling me what TGI value was observed for `O=C(Nc1ccc(Oc2ccc3nc(NC(=O)c4ccccc4)[nH]c3c2)cc1)Nc1cc(C(F)(F)F)ccc1F` ?
Out: 15.6
